Source listed as patent EP4685143A1.

As shown below, each of these compounds has a reported IC50 value.
- assay-system: UniProt:P41594
- Sequence (P41594 21-1212): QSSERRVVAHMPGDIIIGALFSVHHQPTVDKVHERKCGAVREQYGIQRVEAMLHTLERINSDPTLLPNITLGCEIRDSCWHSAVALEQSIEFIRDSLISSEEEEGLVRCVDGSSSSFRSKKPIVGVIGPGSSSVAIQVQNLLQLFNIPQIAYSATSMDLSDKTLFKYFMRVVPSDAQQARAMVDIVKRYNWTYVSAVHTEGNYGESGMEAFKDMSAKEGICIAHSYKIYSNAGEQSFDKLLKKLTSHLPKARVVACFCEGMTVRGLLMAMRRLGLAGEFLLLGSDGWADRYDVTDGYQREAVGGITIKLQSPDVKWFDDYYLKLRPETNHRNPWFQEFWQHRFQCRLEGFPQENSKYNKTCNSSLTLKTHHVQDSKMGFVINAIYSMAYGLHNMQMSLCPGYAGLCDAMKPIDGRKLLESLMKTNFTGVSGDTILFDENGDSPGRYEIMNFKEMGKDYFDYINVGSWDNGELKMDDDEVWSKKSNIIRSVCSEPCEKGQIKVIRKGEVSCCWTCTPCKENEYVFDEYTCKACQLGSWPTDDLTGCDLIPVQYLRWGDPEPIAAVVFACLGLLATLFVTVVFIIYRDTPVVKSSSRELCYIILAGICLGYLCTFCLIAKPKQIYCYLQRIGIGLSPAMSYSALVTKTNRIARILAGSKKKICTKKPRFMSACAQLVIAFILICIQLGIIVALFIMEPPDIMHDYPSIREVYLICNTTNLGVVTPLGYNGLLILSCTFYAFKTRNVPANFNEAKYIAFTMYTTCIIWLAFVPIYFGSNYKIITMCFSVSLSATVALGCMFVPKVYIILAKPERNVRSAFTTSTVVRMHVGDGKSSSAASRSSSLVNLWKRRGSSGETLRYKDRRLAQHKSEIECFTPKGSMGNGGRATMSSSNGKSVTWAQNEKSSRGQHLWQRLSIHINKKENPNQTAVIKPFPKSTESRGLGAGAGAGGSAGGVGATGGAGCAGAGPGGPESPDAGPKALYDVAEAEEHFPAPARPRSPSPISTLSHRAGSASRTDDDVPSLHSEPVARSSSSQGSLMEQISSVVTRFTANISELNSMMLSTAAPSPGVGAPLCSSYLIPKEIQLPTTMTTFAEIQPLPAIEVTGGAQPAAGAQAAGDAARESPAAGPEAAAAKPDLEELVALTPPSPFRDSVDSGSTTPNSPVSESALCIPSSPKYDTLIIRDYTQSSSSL
- run-description: Fluorescence-based Ca2+ mobilization assay
- condition-info: HEK293 cell line permanently overexpressing mGluR5, Ca2+ level change induced by L-glutamate at EC80 concentration, FLIPR Tetra

## Input What does the record list as IC50 for O=c1cc(-c2nnc(C(F)F)o2)ccn1CC#Cc1cccc(C(F)(F)F)c1 [Example 19] ?
## Output 1000 to 2000 nM

## Input What value of IC50 has been recorded for this entry: O=c1cc(-c2noc(C(F)(F)F)n2)ccn1CC#Cc1cccc(Cl)c1 [Example 7]
## Output 1000 to 2000 nM

## Input Entry O=c1cc(-c2nnc(C(F)F)o2)ccn1CC#Cc1cc(Cl)ccc1F [Example 36] : reported IC50 = ?
## Output 1000 to 2000 nM

## Input // IC50 lookup, key: O=c1cc(-c2nnc(C(F)F)o2)ccn1CC#Cc1cccc(Br)c1 [Example 25]
## Output 500 to 1000 nM
